target: Tyrosine-protein kinase JAK3 (Homo sapiens, UniProt P52333); test: Inhibition of Jak3 (unknown origin)
Sequence (P52333 whole entry): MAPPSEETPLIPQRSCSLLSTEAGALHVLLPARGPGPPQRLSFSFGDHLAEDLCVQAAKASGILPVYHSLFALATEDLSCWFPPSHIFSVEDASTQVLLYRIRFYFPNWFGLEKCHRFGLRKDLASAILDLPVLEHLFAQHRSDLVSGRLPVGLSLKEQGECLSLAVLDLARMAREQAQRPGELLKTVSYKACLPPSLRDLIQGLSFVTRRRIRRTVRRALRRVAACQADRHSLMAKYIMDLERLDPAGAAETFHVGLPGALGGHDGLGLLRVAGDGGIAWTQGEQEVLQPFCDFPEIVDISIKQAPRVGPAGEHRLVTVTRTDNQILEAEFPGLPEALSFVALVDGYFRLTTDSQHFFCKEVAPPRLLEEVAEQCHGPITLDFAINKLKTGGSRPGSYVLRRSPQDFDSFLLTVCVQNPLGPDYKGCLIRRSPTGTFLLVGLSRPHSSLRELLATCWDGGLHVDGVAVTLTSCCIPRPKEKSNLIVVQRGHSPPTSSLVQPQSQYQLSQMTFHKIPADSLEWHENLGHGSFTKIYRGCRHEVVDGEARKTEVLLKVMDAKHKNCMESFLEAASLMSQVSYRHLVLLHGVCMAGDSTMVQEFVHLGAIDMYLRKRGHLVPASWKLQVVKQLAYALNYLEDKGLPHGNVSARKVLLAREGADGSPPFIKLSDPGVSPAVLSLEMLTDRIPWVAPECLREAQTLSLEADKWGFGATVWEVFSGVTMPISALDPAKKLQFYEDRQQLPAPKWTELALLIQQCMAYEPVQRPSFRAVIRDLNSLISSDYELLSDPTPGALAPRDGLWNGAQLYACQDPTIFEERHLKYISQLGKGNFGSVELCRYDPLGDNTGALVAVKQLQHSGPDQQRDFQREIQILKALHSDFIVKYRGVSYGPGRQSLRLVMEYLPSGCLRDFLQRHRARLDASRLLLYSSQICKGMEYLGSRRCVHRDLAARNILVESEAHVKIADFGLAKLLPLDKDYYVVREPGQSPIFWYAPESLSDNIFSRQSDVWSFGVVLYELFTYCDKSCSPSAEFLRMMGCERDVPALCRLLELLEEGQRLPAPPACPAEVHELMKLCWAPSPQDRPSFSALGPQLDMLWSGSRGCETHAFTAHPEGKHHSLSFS
This section presents compounds with their documented pIC50 values.
On this scale, pIC50 is minus log10 of a concentration expressed in M (mol/L).

                                   compound                                       tgt  parameter  endpoint_result
0  C[C@H](Nc1nc(Nc2cn(C)cn2)c2cc(F)cnc2n1)c1ncc(F)cn1  Tyrosine-protein kinase JAK3 (Homo sapiens, UniProt P52333)      pIC50             4.52
1  CC(Nc1nc(Nc2cn(C)cn2)c2[nH]ccc2n1)c1ncc(F)cn1 (racemic)  Tyrosine-protein kinase JAK3 (Homo sapiens, UniProt P52333)      pIC50             5.23
2  CC(Nc1nc(Nc2cn(C)cn2)c2cccnc2n1)c1ncc(F)cn1 (racemic)  Tyrosine-protein kinase JAK3 (Homo sapiens, UniProt P52333)      pIC50             5.42
3  C[C@H](Nc1nc(Nc2cn(C)cn2)c2cc[nH]c2n1)c1ncc(F)cn1  Tyrosine-protein kinase JAK3 (Homo sapiens, UniProt P52333)      pIC50             6.66
4  Cc1csc2c(Nc3cn(C)cn3)nc(N[C@@H](C)c3ncc(F)cn3)nc12  Tyrosine-protein kinase JAK3 (Homo sapiens, UniProt P52333)      pIC50             5.41
5  CC(Nc1nc(Nc2cn(C)cn2)c2cn[nH]c2n1)c1ncc(F)cn1 (racemic)  Tyrosine-protein kinase JAK3 (Homo sapiens, UniProt P52333)      pIC50             5.34

Next, consider the following compound.
The compound COc1ccc2c(Nc3cn(C)cn3)nc(NC(C)c3ncc(F)cn3)nc2c1 (racemic) showed pIC50 equal to 4.88
